Taken from BindingDB's records for patent WO2025049746.

pIC50 reference
# Measured On: Bifunctional 3'-5' exonuclease/ATP-dependent helicase WRN [480-1251] (UniProt Q14191)
# Construct: 480-1251
# Sequence (Q14191 480-1251): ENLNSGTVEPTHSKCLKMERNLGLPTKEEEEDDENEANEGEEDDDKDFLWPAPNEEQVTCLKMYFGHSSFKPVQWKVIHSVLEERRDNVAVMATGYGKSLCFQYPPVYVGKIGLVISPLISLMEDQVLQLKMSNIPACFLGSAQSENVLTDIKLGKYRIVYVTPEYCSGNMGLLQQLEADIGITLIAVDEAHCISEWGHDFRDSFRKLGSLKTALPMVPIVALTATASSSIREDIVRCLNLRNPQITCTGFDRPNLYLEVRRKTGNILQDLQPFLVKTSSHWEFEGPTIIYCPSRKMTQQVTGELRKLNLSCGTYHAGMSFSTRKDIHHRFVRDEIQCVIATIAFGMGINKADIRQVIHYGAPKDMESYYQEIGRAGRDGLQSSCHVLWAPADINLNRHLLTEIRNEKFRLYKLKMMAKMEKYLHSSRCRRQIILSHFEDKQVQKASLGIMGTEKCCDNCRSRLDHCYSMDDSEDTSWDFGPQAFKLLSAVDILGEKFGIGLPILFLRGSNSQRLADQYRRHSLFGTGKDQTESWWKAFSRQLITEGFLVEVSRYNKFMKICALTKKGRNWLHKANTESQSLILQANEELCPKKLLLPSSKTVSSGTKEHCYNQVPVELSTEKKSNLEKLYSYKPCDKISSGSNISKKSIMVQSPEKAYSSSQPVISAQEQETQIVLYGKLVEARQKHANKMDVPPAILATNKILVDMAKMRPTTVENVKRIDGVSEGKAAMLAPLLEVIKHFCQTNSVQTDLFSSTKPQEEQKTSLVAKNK
# Assay Method Text: Biochemical Activity Assays
pIC50: −log10 of the molar value.
Recorded Metric: pIC50

Compound	Experimental Result
CCc1c(N2CCN(C(=O)c3ncnc(C)c3O)CC2)c(=O)n2nc(-c3ccc4c(c3)CO[C@@H]4C)nc2n1CC(=O)Nc1ccc(C(F)(F)F)cc1Cl [WO2025049746, Example 191]	7.36
CCc1c(N2CCN(C(=O)c3ncnc(C)c3O)CC2)c(=O)n2nc(C3=CCOCC3)nc2n1CC(=O)NC12CCC(C(F)(F)F)(CC1)CC2 [WO2025049746, Example 349]	6.00
CCc1c(N2CCN(C(=O)c3ncnc(C)c3O)CC2)c(=O)n2nc(-c3ccc4c(c3)OCCO4)nc2n1CC(=O)Nc1ccc(C(F)(F)F)cc1Cl [WO2025049746, Example 1]	7.68
CCc1c(N2CCN(C(=O)c3ncnc(C)c3O)CC2)c(=O)n2nc(-c3ccc4c(c3)CCO[C@@H]4C)nc2n1CC(=O)Nc1ccc(C(F)(F)F)cc1Cl [WO2025049746, Example 228]	7.55
CCc1c(N2CCN(C(=O)c3ncnc(C)c3O)CC2)c(=O)n2nc(-c3ccc4c(c3)CCO4)nc2n1CC(=O)Nc1ccc(C(F)(F)F)cc1Cl [WO2025049746, Example 11]	7.61
